# EXPERIMENT_SUMMARY: qHTS assay to identify small molecule agonists of the TGF-beta/Smad signaling pathway - cell viability counter screen (AID 1346829); further: top concentration of the series differs between compounds; on the % scale 0 is the no-effect control and ±100 the full control effect; nearly all actives have a fitted effect of over 45% in size
# REPORTED_CONDITIONS: SBE-bla HEK293T viability, CellTiter-Glo luminescence, 5 h; series mostly up to 76.8 µM
Results filed as inconclusive are left out. Activity calls are given as the source filed them. The call rests on the fitted dose curve; in most records, active means well fitted cell-killing curve with a large enough effect in the repeat runs; inconclusive means weak or mixed curves, or effect the other way; inactive means flat fitted curve, though single readings scatter.
MEASURED_PARAMETER: activity change, negative = cytotoxicity

Some solved entries appear below for comparison.
[[record]]
molecule = "O=C(O)c1c(Cl)ccc2cc(Cl)cnc12"
measured_parameter = "activity change, negative = cytotoxicity"
experimental_result = "inactive"

[[record]]
molecule = "CC(=O)OCC1=C(C(=O)O)N2C(=O)[C@@H](N)[C@H]2SC1"
measured_parameter = "activity change, negative = cytotoxicity"
experimental_result = "-0.572% [at 15.8 µM] (inactive)"

[[record]]
molecule = "O=C1CCCCC1Cl (stereo not drawn)"
measured_parameter = "activity change, negative = cytotoxicity"
experimental_result = "inactive"

[[record]]
molecule = "CN(CCO)CCO"
measured_parameter = "activity change, negative = cytotoxicity"
experimental_result = "inactive"

[[record]]
molecule = "ClCOCCl"
measured_parameter = "activity change, negative = cytotoxicity"
experimental_result = "inactive"


Hi there! I need activity change, negative = cytotoxicity for each item below, if you can.
1. CN(C)CCN(C)C
2. OP(O)c1ccccc1
3. C=C1C[C@@H]2[C@H](CC[C@]3(C)C(=O)CC[C@@H]23)[C@@]2(C)C=CC(=O)C=C12

Reply:
["inactive", "inactive", "inactive"]

* * *

# SUBJECT_OF_TEST: Thyrotropin-releasing hormone receptor (Homo sapiens)
# EXPERIMENT_SUMMARY: qHTS assay to identify small molecule antagonists of the thyrotropin-releasing hormone receptor (TRHR) signaling pathway (AID 1346877); further: on the % scale 0 is the no-effect control and ±100 the full control effect
# REPORTED_CONDITIONS: TRHR-HEK293, TRH-induced calcium fluorescence, antagonist mode; series mostly up to 51.3 µM
Active and inactive are the calls of the source. Calls come from the whole dose curve; as a rule, active = well fitted inhibition curve with a large enough effect in the repeat runs (not every such curve was filed as active); inconclusive = weak or mixed curves; inactive = flat fitted curve, though single readings scatter.
MEASURED_PARAMETER: activity, negative = inhibition

[[record]]
entry_smiles = "CCc1ccc(C2CCNCC2)cc1"
subject_of_test = "Thyrotropin-releasing hormone receptor (Homo sapiens)"
experimental_result = "inactive"

[[record]]
entry_smiles = "Cc1cc(OC(=O)N(C)C)nn1C(=O)N(C)C"
subject_of_test = "Thyrotropin-releasing hormone receptor (Homo sapiens)"
experimental_result = "inactive"

[[record]]
entry_smiles = "CCOC(=O)N(C)N=O"
subject_of_test = "Thyrotropin-releasing hormone receptor (Homo sapiens)"
experimental_result = "inactive"

[[record]]
entry_smiles = "COP(=O)(OC)O/C(C)=C/C(=O)N(C)C"
subject_of_test = "Thyrotropin-releasing hormone receptor (Homo sapiens)"
experimental_result = "inactive"


* * *

# EXPERIMENT_SUMMARY: qHTS assay to identify small molecule antagonists of the estrogen receptor alpha (ER-alpha) signaling pathway using the BG1 cell line - cell viability counter screen (AID 743081);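 further: compound given together with 17beta-estradiol as the ER stimulus; on the % scale 0 is the no-effect control and ±100 the full control effect; nearly all actives have a fitted effect of over 45% in size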
# REPORTED_CONDITIONS: BG1Luc4E2 viability, CellTiter-Fluor, 22 h; series mostly up to 70.3 µM
Records with an inconclusive call do not appear. Calls of active or inactive are those of the source. The call rests on the fitted dose curve; in most records, active means well fitted cell-killing curve with a large enough effect in the repeat runs; inconclusive means weak or mixed curves, or effect the other way; inactive means flat fitted curve, though single readings scatter.
MEASURED_PARAMETER: activity change, negative = cytotoxicity

Answered cases to consult:
[[record]]
compound = "O=S1(=O)OCCO1"
measured_parameter = "activity change, negative = cytotoxicity"
experimental_result = "inactive"

[[record]]
compound = "CCCCCCC(=O)CCCCCC/C=C/C[C@@H](O)[C@H](O)[C@@](N)(CO)C(=O)O"
measured_parameter = "activity change, negative = cytotoxicity"
experimental_result = "inactive"

[[record]]
compound = "C=C(C)[C@H]1CN[C@H](C(=O)O)[C@H]1CC(=O)O"
measured_parameter = "activity change, negative = cytotoxicity"
experimental_result = "inactive"

[[record]]
compound = "CC1NCCOC1c1ccccc1 (stereo not drawn)"
measured_parameter = "activity change, negative = cytotoxicity"
experimental_result = "inactive"

[[record]]
compound = "Clc1cc2c(cc1Cl)Oc1cc(Cl)c(Cl)cc1O2"
measured_parameter = "activity change, negative = cytotoxicity"
experimental_result = "-0.0382% [at 0.341 µM] (inactive)"

[[record]]
compound = "CCC(C)(C#N)N=NC(C)(C#N)CC (stereo not drawn)"
measured_parameter = "activity change, negative = cytotoxicity"
experimental_result = "inactive"

[[record]]
compound = "CCN(CCO)CCO"
measured_parameter = "activity change, negative = cytotoxicity"
experimental_result = "inactive"

[[record]]
compound = "ClCOCCl"
measured_parameter = "activity change, negative = cytotoxicity"
experimental_result = "inactive"


Provide activity change, negative = cytotoxicity for all items below, preserving their order.
1. O=C(O)c1c(Cl)ccc2cc(Cl)cnc12
2. OCC(Cl)CCl (stereo not drawn)
3. ClCCCCCCCl
4. C=C(Cl)CCl
5. C=CC1(C)OC(=O)N(c2cc(Cl)cc(Cl)c2)C1=O (stereo not drawn)
6. ClCCCCl
7. CC[C@H](N)c1ccccc1

Reply:
["inactive", "inactive", "inactive", "inactive", "inactive", "inactive", "inactive"]

Batch of 7 compounds: report activity change, negative = cytotoxicity for each.
1. CC(=NC#N)N(C)Cc1ccc(Cl)nc1
2. COP(=O)(O)OC
3. CN(CCO)CCO
4. O=C(O)C(Cl)Br (stereo not drawn)
5. NC1(c2ccccc2)CCCCC1
6. O=C(O)C(Br)(Br)Br
7. O=C(Cl)C(Cl)(Cl)Cl

Reply:
["inactive", "inactive", "inactive", "inactive", "inactive", "inactive", "inactive"]

Ask: Record request: activity change, negative = cytotoxicity value, item N#CN
Reply: inactive
